Molecular target: T1, biotinylated human VWF cysteine knot (CK) domain construct (human, UniProt P04275 2724-2813, biotinylated in vitro (BirA) on the biotinylation tag; one N-glycan)
T1 construct: Expressed in HEK293 EBNA cells; disulfide-linked homodimer; also called human VWF CK; human VWF CK domain; not shown: in vitro biotinylation tag, HRV-3C site and 3 VWF residues before the CK domain
Test: SPR, scFv captured via anti-SV5, CK domain injected, pH 7.4, apparent Kd;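 note: scFvs from crude yeast supernatants printed on an amine-coupled anti-SV5 lawn, Kd computed as koff over kon, likely overestimating affinity because the CK construct is dimeric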
Reported Kd values for the following binders.
Reported Metric: Kd

>>> recorded_result("4029_Lib1_scFv (scFv, VH-linker-VL; not shown: C-terminal 3xFLAG and SV5 tags) scFv: QVQLVQSGAEVKKPGASVKVSCKVSGYPFTSSGIHWVRQAPGKGLEWMGGVIPLFGTANYAQKFQGRVTMTEDTSTDTAYMELSSLKSEDTAVYYCARIRVSSGWYRDYGMDVWGQGTTVTVSSSGGSTITSYNVYYTKLSSSGTDIQMTQSPSSVSASVGDRVTITCRASQSIGDFLAWYQQKPGKAPKLLIYDASHLQTGVPSRFSGSGSGTDFTLTISSLQPEDFANYYCQQTSTIPPTFGGGTKVEIK")
"4.27 nM"
>>> recorded_result("Lib1_P1_E9_scFv (scFv, VH-linker-VL; not shown: C-terminal 3xFLAG and SV5 tags) scFv: QVQLVQSGAEVKKPGASVKVSCKVSGYTFTSHIIHWVRQAPGKGLEWMGGMNPYSNKAIYAQKFQGRVTMTEDTSTDTAYMELSSLKSEDTAVYYCARDASDYGDYGYYYYYMDVWGKGTTVTVSSSGGSTITSYNVYYTKLSSSGTDIQMTQSPSSVSASVGDRVTITCRASQYIGNDLAWYQQKPGKAPKLLIYEASQRPSGVPSRFSGSGSGTDFTLTISSLQPEDFANYYCQQQYNYPLTFGGGTKVEIK")
"0.915 nM"
>>> recorded_result("16_Lib8_scFv (scFv, VH-linker-VL; not shown: C-terminal 3xFLAG and SV5 tags) scFv: EVQLVESGGGLVQPGRSLRLSCAASGFRFDEYDMHWVRQAPGKGLEWVSAISSESASIDYADSVEGRFTISRDNAKNSLYLQMNSLRAEDTAVYYCARDGAYGDYFDYWGQGTMVTVSSSGGSTITSYNVYYTKLSSSGTDIQMTQSPSSLSASVGDRVTITCRASQDIKSWLAWYQQKPGKAPKLLIYGASTLQSGVPSRFSGSGSGTDFTLTISSLQPEDVATYYCQQSYSAPYTFGGGTKVEIK")
"2.11 nM"

Each recorded value in this set is attributed to patent US20250154283A1.
